List of inhibition values.
Experiment: growth inhibition of yeast control strain, primary screen, counter-screen for post-Golgi transport modulator project (AID 738)
Assay conditions: efflux-deficient yeast background strain, growth absorbance A615, 16 h; at 10 µM; hits give high values
About 4,900 (5%) of roughly 98,000 compounds were called active. The list comes from a sample in which actives are over-represented; it also holds close analogues and randomly drawn compounds.

# Compound, inhibition
records = [
    ("O=c1c2ccccc2oc2nc3n(c(=O)c12)CCCS3", "0.28% (inactive)"),
    ("Cc1cccc(-n2cnc(C(=O)Nc3cccnc3)c2)n1", "31.6% (active)"),
]

Request: Identify measured inhibition associated with `Cc1cc(C)cc(NS(=O)(=O)c2ccc(Oc3ncc(C(F)(F)F)cc3Cl)cc2)c1`
Result: 33% (active)

Request: Identify measured inhibition associated with `CCCCNC(=S)NNC(=O)c1cc(C)on1`
Result: 6.93% (inactive)

Request: Identify measured inhibition associated with `O=c1c2ccccc2oc2nc(C3CCCCC3)n(Cc3ccco3)c(=O)c12`
Result: 78.7% (active)

Request: Identify measured inhibition associated with `c1ccc(CSc2nnc(-c3ccco3)n2Cc2ccccc2)cc1`
Result: 38.6% (active)

Request: Identify measured inhibition associated with `COC(=O)c1sc2ncccc2c1OCc1ccc(Cl)cc1Cl`
Result: 11.1% (inactive)

Request: Identify measured inhibition associated with Cc1cc(C)c(NC(=O)CS(=O)CC(=O)Nc2cccnc2)c(C)c1 (centres undefined)
Result: -5.42% (inactive)

Request: Identify measured inhibition associated with `O=S(=O)(Nc1ccccn1)c1ccc(Oc2ccccc2)cc1`
Result: 5.52% (inactive)

Request: Identify measured inhibition associated with COCCCNC(=O)C1CC(=O)N(CCc2ccccc2)C1 (centres undefined)
Result: 5.92% (inactive)

Request: Identify measured inhibition associated with `O=C(OCN1C(=O)c2ccccc2C1=O)/C(=C\c1ccco1)NC(=O)c1ccccc1`
Result: -11.4% (inactive)

----------
Experiment: growth inhibition of yeast control strain, primary screen, counter-screen for post-Golgi transport modulator project (AID 738)
Assay conditions: efflux-deficient yeast background strain, growth absorbance A615, 16 h; at 10 µM; hits give high values
Among all 98,000 compounds or so, about 4,900 (5%) were called active. This excerpt belongs to a sample that is enriched for actives.
List of inhibition values.
Numbers only here, please. The scale is %.

# Smiles structure, Result type, Observed result
rows = [
    ("CCN(CC)C(=O)CSc1nnc(-c2cccc(OC)c2)o1", "inhibition", 2.38),
]

Request: Identify measured inhibition associated with `Nc1ccccc1SCc1cc([N+](=O)[O-])cc2c1OCOC2`
Result: 13.6

Request: Identify measured inhibition associated with `O=C(CCc1ccc(S(=O)(=O)NC2CCCCC2)cc1)NCc1ccccc1`
Result: 1.21

----------
Experiment: growth inhibition of yeast control strain, primary screen, counter-screen for post-Golgi transport modulator project (AID 738)
Assay conditions: efflux-deficient yeast background strain, growth absorbance A615, 16 h; at 10 µM; hits give high values
Screen size: about 98,000 compounds; about 4,900 (5%) were called active. The sample as a whole holds a higher share of actives than the screen did.
List of inhibition values.
Numbers only here, please. The scale is %.

Below: 5 compounds and their reported inhibition.
# Compound, inhibition / %
data = [
    ("C=CCOC(=O)C1=C(C)NC(SCC(=O)OCC)=C(C#N)C1c1ccc(C)cc1 (stereo not drawn)", 18.4),
    ("CN1CCN(c2ccc(NC(=O)COc3ccc(Cl)cc3Cl)cc2)CC1", 5.47),
    ("Cc1ccc(NC(=O)N2CCC(C(=O)NCc3ccc(F)cc3)CC2)cc1", 1.66),
    ("CN(C(=O)CSc1nnnn1-c1ccccc1)C1CCCCC1", 38),
    ("COCCOC(=O)C1=C(C)NC(=O)NC1c1ccc(Cl)cc1 (stereo not drawn)", 2.51),
]

Request: Identify measured inhibition associated with `Cc1ccc(NC(=O)COc2ccc(-n3ccnc3)cc2)cc1Cl`
Result: 34.5

Request: Identify measured inhibition associated with `Clc1ccccc1SCc1nc2ccccc2[nH]1`
Result: 9.02

Request: Identify measured inhibition associated with `Cc1cc(C)n(C(=O)c2ccc(C)c(S(=O)(=O)N3CCOCC3)c2)n1`
Result: 11.4

Request: Identify measured inhibition associated with CCOC(=O)C1=C(CN2CCc3ccccc32)NC(=O)NC1c1cccc([N+](=O)[O-])c1 (stereo not drawn)
Result: 1.33

Request: Identify measured inhibition associated with CC(C)C(NS(=O)(=O)c1cccs1)C(=O)Nc1nc(C(C)(C)C)cs1 (stereo not drawn)
Result: 16.8

Request: Identify measured inhibition associated with CCOc1ccc(C(CCc2ccccc2)NC(=O)c2ccc(OC)c(OC)c2)cc1OCC (stereo not drawn)
Result: -3.35

Request: Identify measured inhibition associated with `FC(F)(F)c1cccc(NC(=S)Nc2cccc(Cl)c2)c1`
Result: 35.1

Request: Identify measured inhibition associated with `O=C(c1ccccc1)c1cc(-c2ccccn2)c(N2CCOCC2)s1`
Result: 18

----------
Experiment: growth inhibition of yeast control strain, primary screen, counter-screen for post-Golgi transport modulator project (AID 738)
Assay conditions: efflux-deficient yeast background strain, growth absorbance A615, 16 h; at 10 µM; hits give high values
Among all 98,000 compounds or so, about 4,900 (5%) were called active. The entries come from a sample that favours actives as a whole.
List of inhibition values.
Numbers only here, please. The scale is %.

# Compound, inhibition (%)
measured = [
    ("Cc1cc(C(=O)Nc2c(C)n(C)n(-c3ccccc3)c2=O)cs1", 2.08),
    ("CCS(=O)(=O)n1nc(-c2ccccc2)nc1SCc1ccccc1", 31.2),
    ("COc1cc(/C=N/NC(=O)Nc2ccccc2)ccc1OCCOc1ccccc1C", -1.48),
    ("CC1Cc2ccccc2N1CC(=O)Nc1ccc2c(c1)OC(F)(F)O2 (stereo unspecified)", 17.9),
    ("O=C(NCCc1ccccc1)/C(=C\\c1ccc([N+](=O)[O-])cc1)NC(=O)c1ccccc1", 3.12),
]

Request: Identify measured inhibition associated with Clc1ccc(C2CC(c3cccs3)n3ncnc3N2)cc1Cl (stereo unspecified)
Result: 43

Request: Identify measured inhibition associated with CCOC1CS(=O)(=O)CC1OCC (stereo unspecified)
Result: 8.62

Request: Identify measured inhibition associated with `O=C(Nc1ccccc1)c1ccccc1NC(=O)C(F)(F)F`
Result: 10.5

Request: Identify measured inhibition associated with `Cc1cc(C)n2nc(C(=O)NC(C)(C)C)nc2n1`
Result: 4.47

Request: Identify measured inhibition associated with `COC(=O)c1ccc(C(=O)OC)c(NC(=S)N2CCCCC2)c1`
Result: 5.49

Request: Identify measured inhibition associated with `Cc1ccc2cc(CCNC(=O)c3c(-c4ccccc4Cl)noc3C)c(=O)[nH]c2c1`
Result: 9.09

Request: Identify measured inhibition associated with `CCn1c(SCc2ccc(C)cc2)nnc1-c1nn(-c2ccccc2)ccc1=O`
Result: 28.2

Request: Identify measured inhibition associated with COc1cc(C(O)c2nc3ccccc3n2C)cc(OC)c1OC (stereo unspecified)
Result: 41.1

Request: Identify measured inhibition associated with `CCc1ccc(C(=O)CSc2nnc(C)c(=O)[nH]2)cc1`
Result: 22

----------
List of inhibition values.
Experiment: growth inhibition of yeast control strain, primary screen, counter-screen for post-Golgi transport modulator project (AID 738)
Assay conditions: efflux-deficient yeast background strain, growth absorbance A615, 16 h; at 10 µM; hits give high values
The campaign covered roughly 98,000 compounds. About 4,900 (5%) were called active. What follows is part of a selection rich in actives, with near analogues and random picks from the rest.
Numbers only here, please. The scale is %.

Below: 2 molecules and their reported inhibition.
# Smiles structure, inhibition, %
measured = [
    ("O=C(CSCc1ccccc1Cl)NNC(=O)c1ccccc1", 3.42),
    ("Cc1cc2cc3c(cc2nc1SCC(=O)Nc1c(C)cccc1C)CCC3", 13.7),
]

# evaluate next
Request: Identify measured inhibition associated with `Cc1ccc(SCC(=O)NC(=O)NCc2ccco2)c(C)c1`
Result: 2.9

----------
Experiment: growth inhibition of yeast control strain, primary screen, counter-screen for post-Golgi transport modulator project (AID 738)
Assay conditions: efflux-deficient yeast background strain, growth absorbance A615, 16 h; at 10 µM
Hit rate of the full screen: of about 98,000 compounds, about 4,900 (5%) were called active. Rule as the data show it: active = inhibition above about 30%; inactive = the rest. For the sample, actives were picked, then their nearest neighbours and some compounds at random.
The reply should be one of these categories: TRUE (active), FALSE (inactive)

# Molecule, Classification
measured = [
    ("Cc1ccc(C2CC2C(=O)NN)cc1 (stereo unspecified)", "FALSE"),
]

Request: Kindly provide the recorded test outcome for the following molecule: `CNC(=O)CSc1nnnn1-c1ccc(C)cc1C`
Result: FALSE

Request: Kindly provide the recorded test outcome for the following molecule: `CCOC(=O)CNC(=O)CSc1nnnn1-c1cc(C)ccc1C`
Result: FALSE

Request: Kindly provide the recorded test outcome for the following molecule: `Cc1ccccc1C(=O)N1CCC(C(=O)Nc2ccc(S(=O)(=O)N(C)C(C)C)cc2)CC1`
Result: FALSE

Request: Kindly provide the recorded test outcome for the following molecule: `CCOC(=O)Cc1csc(NC(=O)C(C)(C)C)n1`
Result: TRUE

Request: Kindly provide the recorded test outcome for the following molecule: CCOC(=O)C1Sc2[nH]c(=O)sc2C(c2ccc(Cl)cc2)C1C(=O)OCC (stereo unspecified)
Result: FALSE

Ref: PubChem BioAssay AID738
